Experiment: Terminal half life in rat
Settings: in vivo
Value type: half-life (min)
Give the value in min but do not write min after it.

Note to self: half-life recorded for [14CH3]SCC[C@@H](N)C(=O)O was 34.2
